This listing pairs compounds with measured TGI.
Tested on: MALME-3M melanoma
Method notes: NCI tumour cell line growth inhibition, 48 h

> print(dat)
                                   compound  quantity.name  obs.value
1  Cn1c(=O)c(Oc2ccc(F)cc2)cc2cnc(NC3CCOCC3)nc21            TGI    > 25 µM
2  Cn1cc(-c2csc(-c3c[nH]c4ccc(Br)cc34)n2)c2cnccc21            TGI    3.96 µM
3  N=C1C(=N)c2ccccc2-c2ccccc21.N=C1C(=N)c2ccccc2-c2ccccc21.N=C1C(=N)c2ccccc2-c2ccccc21.[Cl-].[Ru+2]            TGI    3.29 µM

So, COc1ccc(/C(Cl)=C(\C=O)c2ccc(OC)cc2)cc1 ? Its TGI was > 100 µM

get_value(item= CN(C)/N=C1/CCC(C(F)(F)F)(C(F)(F)F)O1 , readout=TGI) returns 61.1 µM

Looking up Cc1ncc([N+](=O)[O-])n1CCNCCCCn1ccnc1[N+](=O)[O-] , I found its TGI recorded as > 100 µM

Query CCOC(=O)/C(=C/c1ccc(N(C)C)cc1)N(CC)CC yields TGI of > 100 µM

* * *

Recorded GI50 values for a group of compounds are listed next.
Tested on: HOP-92 NSCLC
Method notes: NCI tumour cell line growth inhibition, 48 h

Check out these entries, answers already filled in.
> print(dat)
                                   compound  obs.value
1  BrCc1cccc(C[P+](c2ccccc2)(c2ccccc2)c2ccccc2)c1    2.84 µM
2        CCOC(=O)/C=C/c1ccc(C#Cc2ccccc2)cc1   > 100 µM
3  NCCCn1c2c(c3ccc([N+](=O)[O-])cc3c1=O)C(=O)c1ccccc1-2    0.34 µM

Tested system HOP-92 NSCLC; GI50 recorded for O=C(Nc1cc(C(F)(F)F)ccc1Cl)c1cccc(NC2=C(Cl)C(=O)N(Cc3ccccc3)C2=O)c1 was 19.1 µM

// returns GI50 for O=[N+]([O-])c1ccc(CI)cc1 with HOP-92 NSCLC; value = 4.25 µM

I looked up CC(C)OC(=O)[C@H](C)NP(=O)(OC[C@H]1O[C@@H](n2ccc(=O)[nH]c2=O)[C@](C)(F)[C@@H]1O)Oc1ccccc1 (some centres not stated) and its GI50 for HOP-92 NSCLC was > 100 µM

Value sought: GI50, system HOP-92 NSCLC, item COc1ccccc1Nc1ncc(-c2ccccc2)o1 . Result: > 25 µM

* * *

Tested on: T-47D breast
Method notes: NCI tumour cell line growth inhibition, 48 h
Quantity name: TGI

Worked examples, 2 compounds total:
Compound	Measurement target	TGI
O=C1c2cc3c(cc2-c2c1c1cc(Cl)c(Cl)cc1c(=O)n2C[C@H](O)CO)OCO3	T-47D breast	0.0334 µM
CC1CCN(C(=O)OCc2nc3nc(Cl)nc(N4CCOCC4)c3[nH]2)CC1	T-47D breast	4.89 µM

Measured TGI, Oc1ccc2ccccc2c1N=Nc1ccc(Br)cc1 : > 100 µM

Lookup result for Oc1ccc(Nc2c3ccccc3nc3occ(Cl)c23)cc1 ; measured TGI: > 100 µM

Looking up CCOC(=O)/C=C(/C(=O)OCC)n1cnc2c(=O)[nH]c(NC(C)=O)nc21 , I found its TGI recorded as > 100 µM

// field: TGI; key: BrCc1cccc(C[P+](c2ccccc2)(c2ccccc2)c2ccccc2)c1 ; value = > 100 µM

Summary for this compound, CCOC(=O)Cc1ccc(Nc2nc3ccccc3nc2C(=O)OCC)cc1 : TGI is > 100 µM

Where these numbers come from: PubChem BioAssay (NCI)
